B1: TPR 5TU (parent)
chain: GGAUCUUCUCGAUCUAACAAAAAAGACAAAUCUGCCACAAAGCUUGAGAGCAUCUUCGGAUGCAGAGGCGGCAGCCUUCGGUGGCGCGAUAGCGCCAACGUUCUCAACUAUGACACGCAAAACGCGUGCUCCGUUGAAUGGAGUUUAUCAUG

variants of: B1; assay: polymerase ribozyme fitness, log enrichment relative to wild type (log ratio); higher = more active; in vitro selection for triplet polymerase activity
Variants at the floor of the assay were thinned out.
Label Not fulfilled if polymerase ribozyme fitness (log ratio) falls below -3; label Fulfilled in every other case.

mutation	groupLabel
A26G A40C C63U G80U G92A G126U A142U	Not fulfilled
U7C A24U C96U A107G C125G U144C U151C	Not fulfilled
G50C C57G U77A G81A G86C C96A G143A	Not fulfilled
A12G A23U C35U C76A C93U A97U C116A	Not fulfilled
U61C G94A G141A C149A	Not fulfilled
G81U C85A C95A	Fulfilled
C63G A91G	Fulfilled
A40U U55A C85A C116A	Fulfilled
U56A G59C U144G	Fulfilled
A73G G83U G84U	Fulfilled
C69A G83A A121C	Fulfilled
G58A A142U	Fulfilled
C27A C36U C87G G126C C149U	Not fulfilled
A22G G59A	Fulfilled
C5U G11A A29U G70C G84A C96U	Not fulfilled
A29C C57A G68A G88C C114U G117C A122G	Not fulfilled
A73U C79U G88A A119G G124U C149A	Not fulfilled
U13A A28U C36U G81C	Not fulfilled
A16C G58C A60G G83U C116U	Fulfilled
C57U U82A C93A G112U C116U	Not fulfilled
A3U C96A	Fulfilled
C10U U13C A17U C76A C105U	Not fulfilled
G11U C57G A119U A121G C149U	Fulfilled
G11U C14G G34U G84U G141U	Not fulfilled
A52U C57A C95A A97U	Fulfilled
G68C C85U	Not fulfilled
C54U U82A C105U A119G	Fulfilled
U7A A60G C85U U144C	Not fulfilled
C54A U56G A110U U145G	Not fulfilled
A52G A150G	Fulfilled
U45A G92C	Not fulfilled
U6C A60U G86A	Not fulfilled
A60C G81A C87A G133C G143A U148A	Not fulfilled
U15G C116U	Fulfilled
A39U C96G	Fulfilled
A26U C35U C87A G124C	Not fulfilled
C85G A147C	Fulfilled
C35G A91C C118G C123A	Not fulfilled
G124A U148G	Not fulfilled
C57A A73G C125A	Fulfilled
C32U G42A A60C A66G A73G C79A G84A C93U C96G A97U C103G	Not fulfilled
C14A G58A G68A U78A G94A	Not fulfilled
U7C C27U A49C A52G C79A C87G C93G C96A A97U C99U C108U A120U	Not fulfilled
A20C G50U G81C C103U A120U	Fulfilled
